# Tested on: COLO 205 colon
# protocol_summary: NCI-60 one-dose screen, 48 h
# condition_summary: 10 µM unless noted
About 83,000 compounds went through this panel and 20% of them were active in at least one assay; those are over-represented in the sample as a whole. Active and inactive are the calls of the source. Rule for the calls: active = growth percent below 10; inactive = the rest.
Entry note: the call must match one of 1 for active, -1 for inactive

// known answers, use as guide
Cc1sc(C(NC(=O)OCCn2c([N+](=O)[O-])cnc2C)C(F)(F)Cl)nc1-c1ccc(OC(F)(F)F)cc1 (configuration not stated) : 1
Cn1cc(-c2nc(N)nnc2-c2c[nH]c3ccc(F)cc23)c2cc(Br)cnc21 : 1
O=C(c1ccc(OCCN2CCOCC2)cc1)C1[C@H](c2ccc(Cl)cc2)[C@@H](c2ccccc2)NC12C(=O)Nc1ccc(Br)cc12 (some centres not stated) : 1
O=C1N/C(=N\c2nccs2)S/C1=C\C=C/c1ccccc1 : -1
CCOC(=O)C1=C(N)N(c2ccccc2)C2=C(C(=O)CC(C)(C)C2)C1c1ccc(Cl)cc1Cl (configuration not stated) : 1

Now for another entry.
Task: How did this test come out for C#CCOc1cc(N(CC)CC)ccc1C(C(=O)NC(C)(C)C)N(C(=O)C1CCc2cc(F)ccc2O1)c1cc(C)cc(C)c1 (configuration not stated) ?
Result: -1

---

# System: SF-295 CNS
# protocol_summary: NCI-60 one-dose screen, 48 h (100 = growth as untreated, 0 = no growth, -100 = all killed)
# condition_summary: 10 µM unless noted
Compounds without any hit were thinned out: in the full panel of roughly 83,000, 20% have a hit. Active and inactive are the calls of the source. Rule for the calls: active = growth percent below 10; inactive = the rest.
endpoint: growth

C#CCOc1cc(N(CC)CC)ccc1C(C(=O)NC(C)(C)C)N(C(=O)C1CCc2cc(F)ccc2O1)c1ccccc1F (stereo unspecified) : 19.9% (inactive)

Task: Quick check: growth of O=C(c1ccccc1)C(c1c[nH]c2ccccc12)c1c[nH]c2ccccc12 ?
Result: 85.4% (inactive)

Task: Try Cc1ccccc1[C@H]1C(C(=O)c2ccc(Cl)cc2)C2(N[C@@H]1c1ccccc1)C(=O)Nc1ccccc12 (stereo partly specified) next.
Result: -19% (active)

Task: Try Cn1cc(NC(=O)c2cc(NC(=O)c3ccc(/C=C/c4ccccc4)cc3)cn2C)cc1C(=O)NCCCN1CCOCC1 next.
Result: -80.5% (active)

Task: Try Cc1c(C(=O)NNC(=O)c2ccc(Cl)cc2)nnn1-c1ccc(Br)cc1 next.
Result: 90.9% (inactive)

Task: Try COc1ccc2oc3c4[nH]c5ccccc5c4c4c(c3c2c1)C(=O)N(C(=O)OC(C)(C)C)C4=O next.
Result: -26.7% (active)

Task: Try Nc1nnc(-c2c[nH]c3ccc(Br)cc23)c(-c2c[nH]c3ncc(Br)cc23)n1 next.
Result: 41.2% (inactive)

Task: Try CCCCSc1nc(NCCc2c[nH]c3ccccc23)c(C#N)c(-c2ccc(OC)cc2)n1 next.
Result: 43.4% (inactive)

---

The compounds listed here are annotated with their growth.
# Test system: MDA-MB-435 melanoma
# protocol_summary: NCI-60 one-dose screen, 48 h (100 = growth as untreated, 0 = no growth, -100 = all killed)
# condition_summary: 10 µM unless noted
This is part of a sample that, as a whole, favours compounds with a hit. Of some 83,000 tested, about 20% had one in any assay.
Report only the number, with the unit % understood.

COc1c(F)ccc(C(=O)Nc2ccc3nc(NC(=O)C4CCCN(S(=O)(=O)c5cccc(C(F)(F)F)c5)C4)sc3c2)c1F (stereo not drawn) : 87.1

Task: Quick check: growth of CN(C)CCCNC(=O)c1cc(NC(=O)c2cc(NC(=O)c3ccc(/C=C/c4ccccc4)cc3)cn2C)cn1C ?
Result: 58.6

Task: Try NS(=O)(=O)c1ccc(CCNC(=O)CSc2ccc(-c3ccc(Br)cc3)nn2)cc1 next.
Result: 59.1

Task: Try Cc1c(C(=O)NNC(=O)c2ccc(Cl)cc2)nnn1-c1ccc(Br)cc1 next.
Result: 100

Task: Try COc1cc(/C=C2\C(=N)N=C(SCc3nc4ccccc4[nH]3)NC2=O)ccc1O next.
Result: 99.7
